test: Selectivity index, ratio of CC50 for cytotoxicity against mouse C2C12 cells to EC50 for trypanocidal activity against Trypanosoma cruzi […] infected in mouse C2C12 cells; format: toxicity, cell-based; conditions: read-out: Selectivity Index
Field: selectivity ratio. Provide a value for each of the molecules that follow.

Looking up O=C(c1ccc(Nc2nc(NCCN3CCOCC3)c3ccccc3n2)cc1)N1CCOCC1 , I see its selectivity ratio listed as > 1

Looking up Oc1cccc(Nc2nc(NCc3ccccc3)c3ccccc3n2)c1 , I see its selectivity ratio listed as > 11

Looking up Cn1cnc2c(NCc3ccccc3)nc(Nc3ccc(Cl)cc3)nc21 , I see its selectivity ratio listed as > 1

Looking up c1ccc(Nc2nc(Nc3ccccc3)c3ccccc3n2)cc1 , I see its selectivity ratio listed as > 11

Looking up OCCCNc1nc(NCCN2CCOCC2)c2ccccc2n1 , I see its selectivity ratio listed as > 0.3

Looking up O=C(c1ccc(Nc2nc(NCc3ccccc3)c3ccccc3n2)cc1)N1CCOCC1 , I see its selectivity ratio listed as > 12

Looking up Fc1cccc(Nc2nc(Nc3ccccc3)nc3ccccc23)c1 , I see its selectivity ratio listed as > 150

Looking up Cn1cnc2c(NCc3ccccc3)nc(Nc3ccccc3)nc21 , I see its selectivity ratio listed as > 5

Looking up OCCCNc1nc(NCc2ccccc2)c2ccccc2n1 , I see its selectivity ratio listed as > 193

Looking up O=C(Nc1ccccc1)c1ccc(Nc2nc(NCc3ccccc3)c3ccccc3n2)cc1 , I see its selectivity ratio listed as > 6

Looking up c1ccc(CNc2nc(Nc3ccccn3)nc3ccccc23)cc1 , I see its selectivity ratio listed as > 4

Looking up c1ccc(CNc2nc(Nc3nccs3)nc3ccccc23)cc1 , I see its selectivity ratio listed as > 2

Looking up Clc1ccc(Nc2nccc(NCc3ccccc3)n2)cc1 , I see its selectivity ratio listed as > 1

Looking up O=C(Nc1ccccc1)c1ccc(Nc2nc(NCCN3CCOCC3)c3ccccc3n2)cc1 , I see its selectivity ratio listed as > 12

Looking up c1ccc(CNc2ccnc(Nc3ccccc3)n2)cc1 , I see its selectivity ratio listed as > 1

Looking up COc1ccc(Nc2nc(NCc3ccccc3)c3ccccc3n2)cc1 , I see its selectivity ratio listed as 18

Looking up OCCCNc1nc(Nc2cccc(F)c2)c2ccccc2n1 , I see its selectivity ratio listed as > 109

Looking up Clc1ccc(Nc2nc(NCc3ccccc3)c3ccccc3n2)cc1 , I see its selectivity ratio listed as 21

Looking up OCCCNc1nc(Nc2ccc(Cl)cc2)nc2ccccc12 , I see its selectivity ratio listed as > 40

Looking up Oc1ccc(Nc2nc(NCc3ccccc3)c3ccccc3n2)cc1 , I see its selectivity ratio listed as > 2

Looking up Clc1ccc(Nc2nc(NCCN3CCOCC3)c3ccccc3n2)cc1 , I see its selectivity ratio listed as > 27

Looking up O=C(c1ccc(Nc2nc(NCCCO)c3ccccc3n2)cc1)N1CCOCC1 , I see its selectivity ratio listed as > 0.5

Looking up c1ccc(CNc2nc(Nc3ccccc3)nc3ccccc23)cc1 , I see its selectivity ratio listed as > 211

Looking up O=C(Cn1ccnc1[N+](=O)[O-])NCc1ccccc1 [BENZNIDAZOLE] , I see its selectivity ratio listed as > 9
